- experimental system: c-Src SH2;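 further: peptide library displayed on the E. coli surface as eCPX fusions, selected cells deep-sequenced, score is each peptide's frequency after selection divided by its frequency in the input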
- assay name: SH2 binding enrichment of the phosphorylated peptide, bacterial display (enrichment ratio); higher = better substrate or ligand; peptides without Tyr show the background
measured quantity: SH2 binding enrichment

Please look up its SH2 binding enrichment: EPVSDYINANI [PTPN11_Y304] 0.466

Please look up its SH2 binding enrichment: AFLQTYSHEVS [PCDHGA5_Y753] 0.57

Please look up its SH2 binding enrichment: DRLASDLDKVR [KRT10_Y160_Y160D] 0.505

Please look up its SH2 binding enrichment: FKDGQYWIRGR [ACSF3_Y466] 0.46

Please look up its SH2 binding enrichment: HNLDFYKQTTN [FGFR3_Y648_K650Q_YF] 0.395

Please look up its SH2 binding enrichment: GGGGSYNVFGN [HNRNPA1_Y312_D314V] 0.52

Please look up its SH2 binding enrichment: EERNPYFSSAR [MCCC2_Y520_G517R_YF] 0.446

Please look up its SH2 binding enrichment: DPADRYLTEQF [CDKL5_Y286_C291Y_YF] 0.571

Please look up its SH2 binding enrichment: DSGKLYALDGL [INO80_Y1104_V1108G] 0.567

Please look up its SH2 binding enrichment: KKMEVYQSIAD [MYBPC3_Y548_L545M] 1.28

Please look up its SH2 binding enrichment: KASRKYYAMKI [AKT3_Y173_G171R] 0.652

Please look up its SH2 binding enrichment: SVTCTYSPALT [TP53_Y126_N131T] 0.436

Please look up its SH2 binding enrichment: RRNTYYASIAK [ACADM_Y353] 0.953

Please look up its SH2 binding enrichment: PEPHIYAVADV [MYO9A_Y216_L211P] 4.08

Please look up its SH2 binding enrichment: QRMGTYGVRAA [ICAM2_Y260] 0.724

Please look up its SH2 binding enrichment: PLGVLYKVKVF [PTS_Y128_V124L_YF] 0.494

Please look up its SH2 binding enrichment: DGQVNYEEFVQ [CALM1_Y139] 0.399

Please look up its SH2 binding enrichment: LAIEWYVVVCK [RHO_Y136_R135W] 0.5

Please look up its SH2 binding enrichment: VPLATYMQIFK [RPL21_Y30_R32Q_YF] 0.866

Please look up its SH2 binding enrichment: LYDPDFMKVIL [CYP4A22_Y104_Y104F] 0.467

Please look up its SH2 binding enrichment: TPLSAYQIPRT [GAB2_Y324] 0.792

Please look up its SH2 binding enrichment: KLLRLYAVVTR [LYN_Y306_V303L] 1.21

Please look up its SH2 binding enrichment: LSVMSYDLGMF [GBA3_Y174] 0.603

Please look up its SH2 binding enrichment: RLVTRYIFNRE [HLA-DQB1_Y62_Y58L_YF] 0.5

Please look up its SH2 binding enrichment: CPYNLYAAQLS [HGD_Y40_E42A] 0.603

Please look up its SH2 binding enrichment: RHRSGYVLIAM [EFR3A_Y73] 1.73

Please look up its SH2 binding enrichment: FNNPAYYVLEG [INPPL1_Y986] 3.95

Please look up its SH2 binding enrichment: GESVSYLFSHV [PRPS1_Y311] 0.566

Please look up its SH2 binding enrichment: SHGKQYRVPSD [HHIPL2_Y395_R394Q] 0.403

Source listed as the supplement of paper PMC10065799.
